pIC50: −log10 of the molar value.
Record set: pIC50 | E3 ubiquitin-protein ligase CBL-B (Homo sapiens, UniProt Q13191) | literature, multiple sources.
measured.property: pIC50

compound=CC(C)=CCC/C(C)=C/CC/C(C)=C/CC/C(C)=C/C(=O)NCCC[N+](C)(C)CCCC[N+](C)(C)CCCNC(=O)/C=C(\C)CC/C=C(\C)CC/C=C(\C)CCC=C(C)C numeric_readout=5.19
compound="CO[C@H]1C[C@](c2cccc(N3Cc4c(cc(CNC5CC6CC6C5)cc4C(F)(F)F)C3=O)c2)(c2nncn2C)C1 (some centres undefined)" numeric_readout=8.40
compound="Cn1cc(Br)cc1C(=O)NC[C@H]1CC2N=C(N)NC2[C@@H](c2c[nH]c(N)n2)[C@@H]1CNC(=O)c1cc(Br)c(Br)[nH]1 (some centres undefined)" numeric_readout=4.74
compound=C[C@H](NC1(C)CCC1)c1cc(Cl)c2c(c1)C(=O)N(c1cccc([C@]3(c4nncn4C)C[C@H](F)C3)c1)C2 numeric_readout=8.40
